// data source = patent US20220175766A1

assay: Compound 1 pH-solubility at 22° C.; format: physicochemical; settings: aqueous buffer, thermodynamic from solid; 0.1M NaOH, pH 12.6, 22° C.
parameter: solubility (µg/mL)
Write down the numeric answer in µg/mL and omit the unit.

Enquiry: Please give the measured solubility for this compound: "CC(C)(C)OC(=O)N1CCN(Cc2ccn(Cc3ccc(Cl)cc3)c(=O)c2O)CC1"
Return: 890

---

assay: Phase 1a multiple ascending dose study (oral solution): plasma pharmacokinetics; type: in vivo, human; settings: human, plasma, oral, 60 mg, Cohort 1, 60 mg; Day 1; Hour 12; read-out: Compound 1 concentration, Conc (SD)
parameter: concentration at 12 h (ng/mL)
Write down the numeric answer in ng/mL and omit the unit.

Enquiry: Please give the measured concentration at 12 h for this compound: "CC(C)(C)OC(=O)N1CCN(Cc2ccn(Cc3ccc(Cl)cc3)c(=O)c2O)CC1"
Return: 0

---

test: Phase 1a multiple ascending dose study (oral solution): plasma pharmacokinetics; type: in vivo, human; settings: human, plasma, oral, 120 mg, Cohort 4, 120 mg once daily; Day 7; read-out: Cmax, mean
parameter: Cmax (ng/mL)
Write down the numeric answer in ng/mL and omit the unit.

Enquiry: Please give the measured Cmax for this molecule: "CC(C)(C)OC(=O)N1CCN(Cc2ccn(Cc3ccc(Cl)cc3)c(=O)c2O)CC1"
Return: 15.6

---

test: Phase 1a multiple ascending dose study (oral solution): plasma pharmacokinetics; type: in vivo, human; settings: human, plasma, oral, 60 mg, Cohort 5, 60 mg; Day 1; Hour 12; read-out: Compound 1 concentration, Conc (SD)
parameter: concentration at 12 h (ng/mL)
Write down the numeric answer in ng/mL and omit the unit.

Enquiry: Please give the measured concentration at 12 h for this molecule: "CC(C)(C)OC(=O)N1CCN(Cc2ccn(Cc3ccc(Cl)cc3)c(=O)c2O)CC1"
Return: 0

---

assay: Phase 1a multiple ascending dose study (oral solution): plasma pharmacokinetics; type: in vivo, human; details: human, plasma, oral, 60 mg, Cohort 1, 60 mg once daily; Day 7; Hour 2; read-out: Compound 1 concentration, Conc (SD)
parameter: concentration at 2 h (ng/mL)
Write down the numeric answer in ng/mL and omit the unit.

Enquiry: Please give the measured concentration at 2 h for this compound: "CC(C)(C)OC(=O)N1CCN(Cc2ccn(Cc3ccc(Cl)cc3)c(=O)c2O)CC1"
Return: 1.85

---

assay: Phase 1a multiple ascending dose study (oral solution): plasma pharmacokinetics; format: in vivo, human; settings: human, plasma, oral, 60 mg, Cohort 1, 60 mg once daily; Day 7; Hour 0.5; read-out: Compound 1 concentration, Conc (SD)
parameter: concentration at 0.5 h (ng/mL)
Write down the numeric answer in ng/mL and omit the unit.

Enquiry: Please give the measured concentration at 0.5 h for this compound: CC(C)(C)OC(=O)N1CCN(Cc2ccn(Cc3ccc(Cl)cc3)c(=O)c2O)CC1 [Compound 1]
Return: 4.33

---

experiment: Phase 1a multiple ascending dose study (oral solution): plasma pharmacokinetics; assay type: in vivo, human; conditions: human, plasma, oral, 60 mg, Cohort 1, 60 mg once daily; Day 7; Hour 24; read-out: Compound 1 concentration, Conc (SD)
parameter: concentration at 24 h (ng/mL)
Write down the numeric answer in ng/mL and omit the unit.

Enquiry: Please give the measured concentration at 24 h for this compound: CC(C)(C)OC(=O)N1CCN(Cc2ccn(Cc3ccc(Cl)cc3)c(=O)c2O)CC1 [Compound 1]
Return: 0

---

test: Phase 1a multiple ascending dose study (oral solution): plasma pharmacokinetics; format: in vivo, human; settings: human, plasma, oral, 120 mg, Cohort 4, 120 mg; Day 1; Hour 24; read-out: Compound 1 concentration, Conc (SD)
parameter: concentration at 24 h
The number alone won't do; follow it with the unit.

Enquiry: Please give the measured concentration at 24 h for this compound: CC(C)(C)OC(=O)N1CCN(Cc2ccn(Cc3ccc(Cl)cc3)c(=O)c2O)CC1 [Compound 1]
Return: 0 ng/mL

---

assay: Phase 1a single ascending dose study (oral solution): plasma pharmacokinetics; assay type: in vivo; conditions: male, human, 20 mg, Cohort 1, 20 mg single oral dose (0.4 mg/mL, 50 mL), read-out: AUClast, mean (SD)
parameter: AUC(0-t)
The number alone won't do; follow it with the unit.

Enquiry: Please give the measured AUC(0-t) for this compound: "CC(C)(C)OC(=O)N1CCN(Cc2ccn(Cc3ccc(Cl)cc3)c(=O)c2O)CC1"
Return: 10.7 ng·h/mL

---

assay: Phase 1a multiple ascending dose study (oral solution): plasma pharmacokinetics; format: in vivo, human; conditions: human, plasma, oral; Cohort 3, 240 mg; Day 1; read-out: Tmax, median (range)
parameter: Tmax (min)
Write down the numeric answer in min and omit the unit.

Enquiry: Please give the measured Tmax for this compound: CC(C)(C)OC(=O)N1CCN(Cc2ccn(Cc3ccc(Cl)cc3)c(=O)c2O)CC1 [Compound 1]
Return: 30

---

test: Phase 1a multiple ascending dose study (oral solution): plasma pharmacokinetics; type: in vivo, human; conditions: human, plasma, oral, 120 mg, Cohort 4, 120 mg once daily; Day 7; Hour 4; read-out: Compound 1 concentration, Conc (SD)
parameter: concentration at 4 h (ng/mL)
Write down the numeric answer in ng/mL and omit the unit.

Enquiry: Please give the measured concentration at 4 h for this compound: "CC(C)(C)OC(=O)N1CCN(Cc2ccn(Cc3ccc(Cl)cc3)c(=O)c2O)CC1"
Return: 2.98

---

test: Phase 1a single ascending dose study (oral solution): plasma pharmacokinetics; format: in vivo; conditions: male, human, 240 mg, Cohort 5, 240 mg single oral dose (2.4 mg/mL, 100 mL), read-out: Cmax, mean (SD)
parameter: Cmax
The number alone won't do; follow it with the unit.

Enquiry: Please give the measured Cmax for this compound: "CC(C)(C)OC(=O)N1CCN(Cc2ccn(Cc3ccc(Cl)cc3)c(=O)c2O)CC1"
Return: 30.7 ng/mL

---

assay: Phase 1a multiple ascending dose study (oral solution): plasma pharmacokinetics; assay type: in vivo, human; conditions: human, plasma, oral, 120 mg, Cohort 4, 120 mg; Day 1; Hour 8; read-out: Compound 1 concentration, Conc (SD)
parameter: concentration at 8 h (ng/mL)
Write down the numeric answer in ng/mL and omit the unit.

Enquiry: Please give the measured concentration at 8 h for this molecule: CC(C)(C)OC(=O)N1CCN(Cc2ccn(Cc3ccc(Cl)cc3)c(=O)c2O)CC1 [Compound 1]
Return: 0

---

test: Phase 1a multiple ascending dose study (oral solution): plasma pharmacokinetics; type: in vivo, human; conditions: human, plasma, oral, 120 mg, Cohort 4, 120 mg; Day 1; Hour 3; read-out: Compound 1 concentration, Conc (SD)
parameter: concentration at 3 h (ng/mL)
Write down the numeric answer in ng/mL and omit the unit.

Enquiry: Please give the measured concentration at 3 h for this molecule: "CC(C)(C)OC(=O)N1CCN(Cc2ccn(Cc3ccc(Cl)cc3)c(=O)c2O)CC1"
Return: 2.68

---

experiment: Phase 1a single ascending dose study (oral solution): plasma pharmacokinetics; type: in vivo; conditions: male, human, 120 mg, Cohort 3, 120 mg single oral dose (2.4 mg/mL, 50 mL), read-out: Cmax, mean (SD)
parameter: Cmax (ng/mL)
Write down the numeric answer in ng/mL and omit the unit.

Enquiry: Please give the measured Cmax for this compound: CC(C)(C)OC(=O)N1CCN(Cc2ccn(Cc3ccc(Cl)cc3)c(=O)c2O)CC1 [Compound 1]
Return: 12.4

---

experiment: Phase 1a multiple ascending dose study (oral solution): plasma pharmacokinetics; format: in vivo, human; details: human, plasma, oral, 60 mg, Cohort 5, 60 mg once daily; Day 7; Hour 1; read-out: Compound 1 concentration, Conc (SD)
parameter: concentration at 1 h (ng/mL)
Write down the numeric answer in ng/mL and omit the unit.

Enquiry: Please give the measured concentration at 1 h for this molecule: "CC(C)(C)OC(=O)N1CCN(Cc2ccn(Cc3ccc(Cl)cc3)c(=O)c2O)CC1"
Return: 4.6

---

assay: Phase 1a multiple ascending dose study (oral solution): plasma pharmacokinetics; format: in vivo, human; conditions: human, plasma, oral, 120 mg, Cohort 4, 120 mg; Day 1; read-out: AUC(0-τ), mean (SD)
parameter: AUC (ng·h/mL)
Write down the numeric answer in ng·h/mL and omit the unit.

Enquiry: Please give the measured AUC for this compound: CC(C)(C)OC(=O)N1CCN(Cc2ccn(Cc3ccc(Cl)cc3)c(=O)c2O)CC1 [Compound 1]
Return: 38.1

---

test: Phase 1a multiple ascending dose study (oral solution): plasma pharmacokinetics; format: in vivo, human; details: human, plasma, oral, 240 mg, Cohort 3, 240 mg once daily; Day 7; Hour 6; read-out: Compound 1 concentration, Conc (SD)
parameter: concentration at 6 h (ng/mL)
Write down the numeric answer in ng/mL and omit the unit.

Enquiry: Please give the measured concentration at 6 h for this compound: CC(C)(C)OC(=O)N1CCN(Cc2ccn(Cc3ccc(Cl)cc3)c(=O)c2O)CC1 [Compound 1]
Return: 6.8

---

experiment: Phase 1a multiple ascending dose study (oral solution): plasma pharmacokinetics; type: in vivo, human; conditions: human, plasma, oral, 120 mg, Cohort 2, 120 mg; Day 1; read-out: AUC(0-τ), mean (SD)
parameter: AUC (ng·h/mL)
Write down the numeric answer in ng·h/mL and omit the unit.

Enquiry: Please give the measured AUC for this molecule: "CC(C)(C)OC(=O)N1CCN(Cc2ccn(Cc3ccc(Cl)cc3)c(=O)c2O)CC1"
Return: 27.9
